These entries and their values trace back to paper PMC11792361.

- Tested on: malignant melanoma A375
- RUN_DESCRIPTION: MTT cytotoxicity assay, 72 h
- Format: cell-based, human
- MEASUREMENT_CONTEXT: from average IC50 values
Entries and their Selectivity index IC50 for MRC-5/IC50 for A375 values follow.
PROPERTY: Selectivity index IC50 for MRC-5/IC50 for A375

O=c1c(O)c(-c2ccc(O)c(O)c2)oc2cc(O)ccc12	> 2.48
O=C1c2ccc(O)cc2O[C@H](c2ccc(O)c(O)c2)[C@H]1O	> 2.14
O=C1c2c(O)cc(O)cc2OC(c2ccc(O)c(O)c2)C1O (stereo not drawn)	> 2.10
